- PROTOCOL NOTES: Chemical stability of insulin derivatives in 2 mM phosphate (SEC-HPLC and RP-HPLC)
- Type: physicochemical
- EXPERIMENTAL PARAMETERS: pH 7.5, RP-HPLC, 4 weeks 37° C. minus 5° C. start sample
Starred links: 1 amine or outer side, 2 acyl side, 3 side chain; linkers in the order of their positions; H or OH if unused. Positions of bridges follow the written chain, without caps; N, C: chain ends. Groups on a side chain read outwards from the residue. Chains are numbered I, II in the order given. No end group written: not given here. *: point of attachment. C20 diacid = O=C(O)CCCCCCCCCCCCCCCCCCC(=O)*; C18 diacid = O=C(O)CCCCCCCCCCCCCCCCC(=O)*; NMe2Phe = CN(C)[C@@H](Cc1ccccc1)C(=O)*; γGlu = O=C(O)[C@H](CCC(=O)[*:2])N[*:1]; AEEA = NCCOCCOCC(=O)O; Me2Gly = CN(C)CC(=O)*
Threshold check on Chemical degradation (%) (4 weeks 37° C.- 0 weeks 5° C.): at or above 4% gives label 1, strictly below gives label 0.

Please review the following examples before continuing.
### Prompt Does the reported Chemical degradation (%) (4 weeks 37° C.- 0 weeks 5° C.) for I: NMe2Phe-VCQHLCGSHLVEALHLVCGERGFHYTPK([γGlu-C18 diacid]) / II: Me2Gly-IVEQCCTSCCSLEQLENYCN (disulfide I:2-II:9, I:6-II:6, I:18-II:19, II:5-II:10) [Example 4] fall at or above the 4% mark?
### Response label 1

### Prompt Does the reported Chemical degradation (%) (4 weeks 37° C.- 0 weeks 5° C.) for I: Me2Gly-VCQHLCGSHLVEALYLVCGERGFFYPK([γGlu-C18 diacid]) / II: Me2Gly-IVEQCCTSCCSLEQLENYCN (disulfide I:2-II:9, I:6-II:6, I:18-II:19, II:5-II:10) [Example 9] fall at or above the 4% mark?
### Response label 1

---
### Prompt Does the reported Chemical degradation (%) (4 weeks 37° C.- 0 weeks 5° C.) for I: Me2Gly-VCQHLCGSHLVEALYLVCGERGFHYPK([γGlu-C18 diacid]) / II: Me2Gly-IVEQCCTSCCSLEQLENYCN (disulfide I:2-II:9, I:6-II:6, I:18-II:19, II:5-II:10) [Example 7] fall at or above the 4% mark?
### Response label 0

### Prompt Does the reported Chemical degradation (%) (4 weeks 37° C.- 0 weeks 5° C.) for I: NMe2Phe-VCQHLCGSHLVEALYLVCGERGFHYPK([AEEA-AEEA-γGlu-C18 diacid]) / II: Me2Gly-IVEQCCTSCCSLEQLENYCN (disulfide I:2-II:9, I:6-II:6, I:18-II:19, II:5-II:10) [Example 11] fall at or above the 4% mark?
### Response label 0

### Prompt Does the reported Chemical degradation (%) (4 weeks 37° C.- 0 weeks 5° C.) for I: Me2Gly-VCQHLCGSHLVEALHLVCGERGFHYTPK([γGlu-C18 diacid]) / II: Me2Gly-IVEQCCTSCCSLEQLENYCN (disulfide I:2-II:9, I:6-II:6, I:18-II:19, II:5-II:10) [Example 8] fall at or above the 4% mark?
### Response label 1

### Prompt Does the reported Chemical degradation (%) (4 weeks 37° C.- 0 weeks 5° C.) for I: NMe2Phe-VCQHLCGSHLVEALHLVCGERGFHYTPK([AEEA-AEEA-γGlu-C18 diacid]) / II: Me2Gly-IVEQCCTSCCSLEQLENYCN (disulfide I:2-II:9, I:6-II:6, I:18-II:19, II:5-II:10) [Example 13] fall at or above the 4% mark?
### Response label 1

### Prompt Does the reported Chemical degradation (%) (4 weeks 37° C.- 0 weeks 5° C.) for I: Me2Gly-VCQHLCGSHLVEALYLVCGERGFHYTPK([AEEA-AEEA-γGlu-C18 diacid]) / II: Me2Gly-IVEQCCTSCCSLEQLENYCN (disulfide I:2-II:9, I:6-II:6, I:18-II:19, II:5-II:10) [Example 16] fall at or above the 4% mark?
### Response label 1

### Prompt Does the reported Chemical degradation (%) (4 weeks 37° C.- 0 weeks 5° C.) for I: Me2Gly-VCQHLCGSHLVEALYLVCGERGFHYPK([AEEA-AEEA-γGlu-C18 diacid]) / II: Me2Gly-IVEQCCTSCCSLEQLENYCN (disulfide I:2-II:9, I:6-II:6, I:18-II:19, II:5-II:10) [Example 15] fall at or above the 4% mark?
### Response label 1

### Prompt Does the reported Chemical degradation (%) (4 weeks 37° C.- 0 weeks 5° C.) for I: NMe2Phe-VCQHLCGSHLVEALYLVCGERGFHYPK([γGlu-C20 diacid]) / II: Me2Gly-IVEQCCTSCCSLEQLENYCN (disulfide I:2-II:9, I:6-II:6, I:18-II:19, II:5-II:10) [Example 18] fall at or above the 4% mark?
### Response label 1

### Prompt Does the reported Chemical degradation (%) (4 weeks 37° C.- 0 weeks 5° C.) for I: NMe2Phe-VCQHLCGSHLVEALYLVCGERGFHYTPK([γGlu-C20 diacid]) / II: Me2Gly-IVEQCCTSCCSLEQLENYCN (disulfide I:2-II:9, I:6-II:6, I:18-II:19, II:5-II:10) [Example 19] fall at or above the 4% mark?
### Response label 1

### Prompt Does the reported Chemical degradation (%) (4 weeks 37° C.- 0 weeks 5° C.) for I: NMe2Phe-VCQHLCGSHLVEALYLVCGERGFHYTPK([γGlu-C18 diacid]) / II: Me2Gly-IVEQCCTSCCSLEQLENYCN (disulfide I:2-II:9, I:6-II:6, I:18-II:19, II:5-II:10) [Example 3] fall at or above the 4% mark?
### Response label 0
